Quick list: reporter increase per entry.
- assay_name: Bmi1 luciferase reporter increase in mESCs, primary screen, esBAF inhibitor project, mouse ES cells, Bmi1 luciferase knock-in, single point (AID 602393);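 also: 0% = median of the plate's neutral control wells and 100% = double that signal; a rise in the Bmi1 reporter signal indicates esBAF inhibition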
- measurement_parameters: 24 h, at 12.5 µM, active compounds read high, 100% = twice the neutral-well signal
Screen size: about 350,000 compounds; about 7,000 (2%) were called active. The list comes from a sample in which actives are over-represented; it also holds close analogues and randomly drawn compounds.

Worked examples, 7 compounds total:
smiles_representation: COc1cc(NC(=O)COC(=O)c2ccc([N+](=O)[O-])s2)cc(OC)c1OC
reporter increase: -3.17% (inactive)

smiles_representation: COc1cccc(C(=O)Nc2ccc3c(c2)C(=O)N(C)C[C@@H](OC)[C@@H](C)CN(C)[C@@H](C)CO3)c1
reporter increase: 1.2% (inactive)

smiles_representation: CCCn1c(C)cc(/C=C(\C#N)C(=O)OCC(=O)Nc2cc(OC)c(OC)c(OC)c2)c1C
reporter increase: 61.6% (active)

smiles_representation: CN1CCCCN2[C@@H](CO)[C@@H](c3ccc(C4=CCCC4)cc3)[C@@H]2C1
reporter increase: -22.1% (inactive)

smiles_representation: CN1C(=O)c2cc(NC(=O)c3cscn3)ccc2OC[C@H]2O[C@@H](CC(=O)NCC3CC3)CC[C@H]21
reporter increase: 1.7% (inactive)

smiles_representation: COc1ccccc1S(=O)(=O)N1CC[C@H]2[C@@H](CO)N(C)c3ccc(C#Cc4ccccc4)cc3[C@H]21
reporter increase: -3.04% (inactive)

smiles_representation: C[C@H]1CN([C@@H](C)CO)C(=O)c2cc(Br)cnc2O[C@H]1CN(C)Cc1cccc(F)c1
reporter increase: -3.97% (inactive)

Field: next compound
stdin: For the compound "CCNC(=O)[C@@H]1[C@@H](CO)[C@@H]2Cn3c(ccc(-c4ccncc4)c3=O)[C@@H]2N1Cc1cc(F)ccc1F" , what reporter increase is on record?
stdout: -2.84% (inactive)
